Tested on: Plasmodium falciparum
PROCEDURE_SUMMARY: Screen against P. falciparum Asexual Blood Stage (ABS), at 5uM
Type: functional, Dd2
STATED_CONDITIONS: tested at 5 uM
Hit rate of the full screen: of about 65,000 compounds, about 2,100 (3.2%) showed an effect of 50% or more. The median lay at about -52%. The list comes from a sample in which strong results are over-represented; it also holds close analogues and randomly drawn compounds.
Classification field. Basis: INHIBITION. Definitions: low-valued (below -60%), mid-valued (-60% to below 50%), high-valued (50% or more)

• CN1CCN(C(=O)CCn2nnc3ccccc32)CC(C(N)=O)C1 (stereo not given) = low-valued
• CCSc1cncc(NCc2ccc(N3CCNC(=O)C3)cc2)n1 = mid-valued
• O=C(c1cc(Cl)ccc1OC1CCN(C2CCCC2)CC1)N1CCCO1 = high-valued
• Cc1cnc(CN2CCOC(Cn3nc(C)cc3C)C2)cn1 (stereo not given) = mid-valued
• COc1ccccc1C(NCc1ccc(SC)cc1)c1nccn1C (stereo not given) = high-valued
• CN(C)c1nc(NCCc2ccccn2)ncc1F = low-valued
• Cc1cc(CN2CCOC(Cn3nc(C)cc3C)C2)on1 (stereo not given) = mid-valued
• COc1cccc(C(NCc2ccc(SC)cc2)c2nccn2C)c1 (stereo not given) = high-valued
• COc1ccc(C(=O)CCC(=O)NCc2c(C)noc2C)cc1F = low-valued
• CSc1ccc(CNC(c2ccccc2)c2nccn2C)cc1 (stereo not given) = mid-valued
• O=C1CN(c2ccc(CNc3cncc(-n4cccn4)n3)cc2)CCN1 = high-valued
• Cn1ccnc1C(NCc1ccc(Br)cc1)c1ccccc1 (stereo not given) = high-valued
• O=S(=O)(NCC1(O)CCOc2ccccc21)c1ccc(Br)s1 (stereo not given) = high-valued
• CCC(CO)N(Cc1ccsc1)Cc1cccc(O)c1 (stereo not given) = high-valued
• CCc1nccn1-c1cccc(C2CCCN(C3CCCCC3)C2)n1 (stereo not given) = high-valued
• CCc1nc(C2CCCN2Cc2cc(C)nc3ccccc23)no1 (stereo not given) = low-valued
• CCc1ccc(CN(Cc2ccco2)C(C)C(C)C)nc1 (stereo not given) = low-valued
• CN(C)C(=O)CC1CC2(CCNCC2)c2cc(F)ccc21 (stereo not given) = mid-valued
• CC(=O)N1CCC(Oc2ccc(Cl)cc2C(=O)N2CCCO2)CC1 = mid-valued
• O=C(NC1CCC1)[C@H]1C[C@H]2CN(CC3CC3)C[C@@H]1O2 = low-valued
• CCC(CO)N(CC=C(C)C)Cc1ccsc1 (stereo not given) = mid-valued
• Cc1cc(C)n(CC2CN(Cc3cnc(C)s3)CCO2)n1 (stereo not given) = high-valued
• CC(C)c1nccn1-c1cccc(C2CCCN(S(=O)(=O)N(C)C)C2)n1 (stereo not given) = low-valued

---

System: Plasmodium falciparum
PROCEDURE_SUMMARY: Screen against P. falciparum Asexual Blood Stage (ABS), at 5uM
Assay type: functional, Dd2
STATED_CONDITIONS: tested at 5 uM
Among all 65,000 compounds or so, about 2,100 (3.2%) showed an effect of 50% or more. The median lay at about -52%. The list comes from a sample in which strong results are over-represented; it also holds close analogues and randomly drawn compounds.
# INHIBITION per record follows
ASSAY_READOUT: INHIBITION (%)

- Cc1cc(C(N)=O)nc(C2(C)CCCN2Cc2cnn(C)c2C)n1 (stereo not drawn): -80.5
- O=S1(=O)CCC(NCCn2cncc2-c2ccc3c(c2)CCCO3)C1 (stereo not drawn): -91.4
- CN1CCCc2cc(-c3cncn3CCNC3CCS(=O)(=O)C3)ccc21 (stereo not drawn): -79.3
- CC1CCN(S(=O)(=O)c2cccn(CC(=O)NC(C)(C)C)c2=O)CC1: -129
- C[C@@H]1CN(C2(C(=O)N3CCOCC3)Cc3ccccc3C2)C[C@H](C)O1: -22.3
- CN1CCCC(Cc2cncc(C(=O)N3CCOCC3)c2)C1 (stereo not drawn): -133
- C[C@@H]1CN(C2(C(=O)N3CCSCC3)Cc3ccccc3C2)C[C@H](C)O1: -238
- CC(C)c1ncc2c(n1)CN(CC(=O)Nc1ccncc1)CC2: -23.6
- CCn1cncc1CNC(=O)c1ccc(C2CCCN2C(=O)COC)s1 (stereo not drawn): -32.8
- CN1CCCc2cc(-c3cncn3CC(=O)NC(C)(C)C)ccc21: -38.6
- CCN1CCc2cc(-c3cncn3CCNC3CCS(=O)(=O)C3)ccc21 (stereo not drawn): 3.68
- COC1[C@@H]2CC[C@H]1CN(c1nc(C)nc3sccc13)C2 (stereo partly drawn): -88.3
- Cc1ccc(C(=O)N2CC[C@@H]3[C@H]2CCC(=O)N3CCN(C)C)cn1: -2.53
- OC1CCN(c2ccnc(NCCN3CCc4ccccc4C3)n2)C1 (stereo not drawn): -46.6
- COC(=O)c1cc(C(=O)N2CCCCCC2)n(-c2ccccc2)n1: -126
- CCc1nnc2n1CC(CNCC1CCCC1)CC2 (stereo not drawn): -108
- CN(CCC#N)C(=O)Cn1nnnc1C(C)(C)C: -112
- CC(CN1CCCC1=O)NC(=O)Nc1ccccc1Cn1cccn1 (stereo not drawn): -4.06
- OC1CCN(c2ccnc(NCCc3ccccc3Cl)n2)C1 (stereo not drawn): 61.6
- CC(C)CC(=O)Nc1cccc(CNCc2cccs2)c1: -70.1
- COC(=O)c1cc(C(=O)N2CCCC(C)C2)n(-c2ccccc2)n1 (stereo not drawn): 50.2
- C[C@@H]1CN(C2(C(=O)N3CCNCC3)Cc3ccccc3C2)C[C@H](C)O1: 63.4
- COC(=O)c1cc(C(=O)N2CCC(C)CC2)n(-c2ccccc2)n1: 43.3

The values you see were collected from ChEMBL document CHEMBL4513216.
